This collection of values is drawn from the supplement of paper PMC9170038.

# maps each entry to its apparent KD of MS2 coat protein
System: MS2 coat protein
Assay: apparent KD of MS2 coat protein; designed switch direction (-1 OFF switch, 1 ON switch): -1; higher = weaker reporter binding
Conditions: input ligand: none
parameter-measured: apparent KD of MS2 coat protein (nM)

# residues, parameter-measured, units-text, reading
rows = [
    ("AAUAAUCAUGUAGGAUAUGCGUGGCGAAGCUAUGCAGAAGGACAUGAGGAUCACCCAUGUUCUAGCGUCUGCGUACAGAUGCUA [Mat - Exclusion NG 1 - Mod of JL - D79] (Eterna round: R96, puzzle: Exclusion NG 1)", "apparent KD of MS2 coat protein", "nM", 37.1),
    ("AAAUUAGCAAGUAGGUCCGACAUGAGGAUCACCCAUGUAAUCUGAAAUUACGCUGCAUGAAAGUGCGCUCGUCUUAG [Sensor-V1 #10] (Eterna round: R97, puzzle: Sensor, turn-off variant 1)", "apparent KD of MS2 coat protein", "nM", 168),
    ("CUGCUCCGUGUAGGAUAUGCAUACCACCACUAUGCAGAAGGACAUGAGGAUCACCCAUGUAUGUUAUUAUCACGUGAAGCGUCC [Design 19] (Eterna round: R96, puzzle: Exclusion NG 1)", "apparent KD of MS2 coat protein", "nM", 23.7),
    ("GUUAACGCAGGAUAUUAGUACUUUUACAUGAGGAUCACCCAUGUUAAUUGGGUCUAAGAAUAAGAAGGGCGAUGAA [JR_Ex5_Sub009] (Eterna round: R97, puzzle: Exclusion 5)", "apparent KD of MS2 coat protein", "nM", 42.8),
    ("UGACGCACGCGAGGAUAUUCCCACGAAACAAACAACGAAGGGUACAUGAGGAUCACCCAUGUGGCGAAGAAGGCGCGCGUCCGG [Eternabot solution 1] (Eterna round: R96, puzzle: Exclusion NG 2)", "apparent KD of MS2 coat protein", "nM", 1310),
    ("CUGAUGUCAGGAUAUCGGUGGCUCACUUGUGUGUGCCAGUUCGAGAAGGGACAUGAGGAUCACCCAUGUUUUUA [Exclusion 4 (Mod2 of #36 by Marzena11)] (Eterna round: R97, puzzle: Exclusion 4)", "apparent KD of MS2 coat protein", "nM", 75.2),
    ("ACGCACACGCACGCACGCACACAUGAGGAUCACCCAUGUAAUUAGGAUAUAUUGAAGAACAGAGAAUAGAAGGAAUUACUCAUG [Default title] (Eterna round: R96, puzzle: Exclusion NG 3)", "apparent KD of MS2 coat protein", "nM", 70.7),
    ("GCGUAGUAUGUAGGAUAUCGGUCAGUUUCUGAUCGAGAAGGACAUGAGGAUCACCCAUGUAAAACGACCGCUUUGUGGUUACGC [JL ENG1 3.58] (Eterna round: R96, puzzle: Exclusion NG 1)", "apparent KD of MS2 coat protein", "nM", 19.2),
    ("AGUAAGCUAGGAUAUGCUUUGGGAAAGCAUUCCUUCGAUAAACUUGAGGAUCACCCAAGUAGAAGGAGCUUACC [salish99_ex2_r4_002] (Eterna round: R97, puzzle: Exclusion 2)", "apparent KD of MS2 coat protein", "nM", 12.4),
]

###

# maps each entry to its apparent KD of MS2 coat protein
System: MS2 coat protein
Test: apparent KD of MS2 coat protein; designed switch direction (-1 OFF switch, 1 ON switch): -1; higher = weaker reporter binding
Settings: input ligand: none

# residues, apparent KD of MS2 coat protein
measured = [
    ("UCUCUUGGGCAAGGAUAUCCUGUGCGGUUCCGGCUCGUGUCUGUCACAUGAGGAUCACCCAUGUGGGAGAAGGUGCCUGCGGUC [Design 81] (Eterna round: R96, puzzle: Exclusion NG 2)", "15.1 nM"),
    ("GUUUUACAUGAGGAUCACCCAUGUGAGGAUAUGUUAUUAAUAGCGAUAGUUAUUGGUGGCAGAAGGCGCGUGAU [JR_Exc1_Sub011] (Eterna round: R97, puzzle: Exclusion 1)", "82.6 nM"),
    ("CCCGUGUAAGGAUAUCGUUCACUUGACAAAAGUCAAGUGAACGAGAAGGUACAUGAGGAUCACCCAUGUACGGG [-33.8, -33.4 kcal, A 32%] (Eterna round: R97, puzzle: Exclusion 4)", "571 nM"),
    ("CCACGUCCGUACGUGUACUUGUCUCCUGUGUGCCCGGGUACAUGAGGAUCACCCAUGUCUGUGCUCGCCUUCUGCCC [JR_Sensorv2_tov2_Sub724] (Eterna round: R96, puzzle: Sensor v2, turn-off variant 2)", "165 nM"),
    ("AGCUGAGCAGGAUAUACAUGAGGAUCACCCAUGUUGGUCAAGCGACGAUAGUCGCAAUGUAGAAGGGCUCAGCU [E3/8-D2] (Eterna round: R97, puzzle: Exclusion 3)", "357 nM"),
]

###

System: MS2 coat protein
Assay: apparent KD of MS2 coat protein; designed switch direction (-1 OFF switch, 1 ON switch): -1; higher = weaker reporter binding
Conditions: input ligand: FMN 200 uM
# maps each entry to its apparent KD of MS2 coat protein

# residues, apparent KD of MS2 coat protein (µM)
rows = [
    ("GCAGCGUAUGUAGGAUAUCGGUCAGUUUCUGAUCGAGAAGGACAUGAGGAUCACCCAUGUAUAUUCCGUCGUGAGACGGGCUGC [JL ENG1 3.69] (Eterna round: R96, puzzle: Exclusion NG 1)", 0.0236),
    ("CGGCAAAGGAAGGAUAUGCUAGACGAUAGUCUAGCAGAAGGUCCUACAUGAGGAUCACCCAUGUGUCCUAGCCG [Mat - Exclusion 6 - Eli Mod - D9] (Eterna round: R97, puzzle: Exclusion 6)", 0.0496),
    ("ACGGACUGAGGAUAUGCAUGCAGGAUACCUUAGUCCAAGGGACAUGAGGAUCACCCAUGUAGAAGGCGGAAAUA [Riedzaanor] (Eterna round: R97, puzzle: Exclusion 2)", 0.0261),
]

###

Tested on: MS2 coat protein
Experiment: apparent KD of MS2 coat protein; higher = weaker reporter binding
Conditions: Eterna round: R107; input ligand: arginine 13.2 mM

# residues, apparent KD of MS2 coat protein / nM
rows = [
    ("AAUCUGUCGGGUGAUACCAGCCUCGGCACAUCUCGUGCCGAACAUGAGGAUCACCCAUGUGGCCCUUGGCAGCACAUGACAAAUC [Usreerso]", 289),
    ("GCUAGUGGCAGAAGGAGCGAGGCCCGCGCACAUAACAUGAGGAUCACCCAUGUGGCGAGACCUCAGGUAGGUCGCUGCCACUAGC [EAB NP+V2 #1]", 12),
    ("CAGUCAGUCAGUCAAUGAGUGAGGCAUGAAGGAGCGUGGGAAACCACAGGUAGGUCGCAUGCGGAACAUGAGGAUCACCCAUGUU [SSArg A #4]", 31.9),
    ("AUGCACCUCGUCCAGGCAAUCUUUAGUGAUACCAGCUAACUCCUUGGCCCUUGGCAGCACAUGAGGAUCACCCAUGUGCGACAUC [Tidile]", 11.1),
    ("GGGCAAGAGGGAAGGAGCGUCAGCUGAGUCACAUGAGGAUCACCCAUGUAGCACAUAGUGUGACAGGUAGGUCGCCCUCUGCCCU [SS-ArgB5]", 11.1),
    ("ACGAUAGGACACGAGGAUCACCCGUGUGAUACCAGCCUGGAAACAGGCCCUUGGCAGCACAAAUACUCCAAUAACCUAUCGAAUA [TheoAX 10 #MicroSwitchBubble #AlternativeMS2]", 56.5),
    ("ACGAACGAUAGUGAUACCAGACGUACAUGAGGAUCACCCAUGUUAUACACAUGGUUUAUUGUCCCUUGGCAGCACGAUAAGUUCG [JR_ExcTheophyB_Sub004]", 109),
    ("AAUAAGAGCUCGGAUACCAGCGAAAACAGGCACAUGAGGAUCACCCAUGUUAACGCACUGCGCCCUUGGCAGCCGCACGUGUGUC [theeternabot_sameState_MS2_Theo_B_39]", 19.6),
    ("GUUGGAUGCUCGGCCGCCACUGAGAGAGUCAUGUGAACAUGAGGAUCACCCAUGUAAUAUAUAUACAGGACCGGGAGUGUUGUAA [4.J]", 19.7),
    ("AACAUCACAACGGCCGCCACUGCACAUGACAACAUGAGGAUCACCCAUGUGGAUCACCCAUGUCCCAGGACCGGGUUAUGAGGAU [Same State - Tryptophan B #1]", 23.7),
    ("UCUUUCUAUUGUGAUACCAGACGUACAUGAGGAUCACCCAUGUUUCAUUCUUGUUUUAAAGUCCCUUGGCAGCACUAUUUGUUCG [JR_Nu_ExcTheophyB_Sub028]", 19.6),
    ("ACGAUGCGACAUGAGGAUCACCCAUGUGAUACCAGCCUGGAAACAGGCCCUUGGCAGCACAAAUACUCCAGAAACGCAUCGAAUA [MAT - Exclusion Theophlline A - Mod of Eli - D3]", 96.3),
]
